System: Mus musculus
measurement-notes: Analgesic activity in albino Mus musculus (mouse) assessed as inhibition of acetic acid-induced abdominal writhings at 10 mg/kg, po administered 1 hr before acetic acid injection measured for 5 to 8 min
Type: functional
condition-set: Abdomen
Assign 1 whenever inhibition in vivo at 10 mg/kg does not fall below 50%; assign 0 whenever it does.

Use these answered entries as a reference point.
• O=C([O-])Cc1ccccc1Nc1c(Cl)cccc1Cl.[Na+] [DICLOFENAC SODIUM] = 1
• COc1ccc([C@H]2O[C@@]3(C)C[C@H](c4ccc(OC)c(OC)c4OC)O[C@H]4C(=O)[C@H](C)[C@H]2C[C@H]43)c(OC)c1OC = 0
• COc1cc([C@@H]2C[C@@]3(C)O[C@H]4C(C)=CC[C@@H]3[C@H]4O2)cc(OC)c1OC = 1

Next:
// inclusive: inhibition in vivo at 10 mg/kg at least 50%? input: `COc1cc([C@@H]2CC(C)(C)[C@@H]3CC=C(C)[C@@H](O)[C@@H]3O2)cc(OC)c1OC`
0

----------
measurement-notes: Acute toxicity in albino Mus musculus (mouse) assessed as mortality administered intragastrically by kreber method
Format: organism-based
condition-set: in vivo, po
outcome-measure: LD50
Your answer should be a number followed by the unit of measure.

Supply LD50 value. Item: `COc1cc([C@@H]2C[C@@]3(C)O[C@H]4C(C)=CC[C@@H]3[C@H]4O2)cc(OC)c1OC`
500 mg/kg
